B1: C1orf137 (parent)
chain: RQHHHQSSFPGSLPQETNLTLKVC

variants of: B1; assay: protein stability index of a GFP-peptide fusion (GPS, HEK-293T) (PSI 1-6); higher = more stable; settings: c terminus: a fixed tail appended;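 also: lentivirally expressed fusions sorted by FACS into six bins by GFP to DsRed ratio, PSI derived from sequencing read proportions per bin multiplied by bin number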
Recorded metric: protein stability index
Answers are plain numbers.

>  <Mutant label>
S7M

>  <Value measured>
2.43

$$$$
>  <Mutant label>
K22D

>  <Value measured>
3.5

$$$$
>  <Mutant label>
E16V

>  <Value measured>
1.57

$$$$
>  <Mutant label>
H5K

>  <Value measured>
2.34

$$$$
>  <Mutant label>
H4F

>  <Value measured>
2.74

$$$$
>  <Mutant label>
K22M

>  <Value measured>
2.28

$$$$
>  <Mutant label>
N18G

>  <Value measured>
3.65

$$$$
>  <Mutant label>
Q15M

>  <Value measured>
2.29

$$$$

Fill in protein stability index for each of the 7 variants listed.
1. P10N
2. Q15L
3. N18D
4. S8K
5. Q2I
6. Q15P
7. T20M

A.
1. 2.69
2. 2.19
3. 3.83
4. 3.07
5. 2.28
6. 3.05
7. 2.63
